Ref: paper PMC11784839

The following molecules are listed with their measured raw data 1 values.
system-name: tau (Homo sapiens)
experiment-description: MCE Phenols Library screening, tau biosensor cell seeding assay (AvZ)
Assay type: cell-based
measurement-parameters: puncta, replicate 1
measurement-label: raw data 1

- molecule: "O=C1c2ccccc2C(=O)c2c(O)ccc(O)c21"
  measurement-label: "raw data 1"
  reported-value: 14091.5
- molecule: "O=c1c(O)c(-c2ccc(O)c(O)c2)oc2cc(O)ccc12"
  measurement-label: "raw data 1"
  reported-value: 9642.85
- molecule: "O=c1c(O[C@@H]2O[C@H](CO)[C@@H](O)[C@H](O)[C@H]2O)c(-c2ccc(O)cc2)oc2cc(O)cc(O)c12"
  measurement-label: "raw data 1"
  reported-value: 20041.3
- molecule: "COc1ccc(-c2oc3c(CC=C(C)C)c(O[C@@H]4O[C@H](CO)[C@@H](O)[C@H](O)[C@H]4O)cc(O)c3c(=O)c2O[C@@H]2O[C@@H](C)[C@H](O)[C@@H](O)[C@H]2O)cc1"
  measurement-label: "raw data 1"
  reported-value: 30921.9
- molecule: "O=c1cc(-c2ccc(O)c(-c3c(O)cc(O)c4c(=O)cc(-c5ccc(O)cc5)oc34)c2)oc2cc(O)cc(O)c12"
  measurement-label: "raw data 1"
  reported-value: 15910.5
- molecule: "Oc1cc(O)c2c(c1)O[C@H](c1cc(O)c(O)c(O)c1)[C@@H](O)C2 [(+)-Gallocatechin]"
  measurement-label: "raw data 1"
  reported-value: 18193.2
- molecule: "O=C(/C=C/c1ccc(O)c(O)c1/C=C/c1ccc(O)c(O)c1)O[C@H](Cc1ccc(O)c(O)c1)C(=O)O"
  measurement-label: "raw data 1"
  reported-value: 661.17

---

system-name: tau (Homo sapiens)
experiment-description: MCE Phenols Library screening, tau biosensor cell seeding assay (AvZ)
Assay type: cell-based
measurement-parameters: puncta, replicate 1
Label Y when raw data 1 is at or above 30000; otherwise label N.

- compound: "CCc1ccc(O)cc1O [4-Ethylresorcinol]"
  cat: "N"
- compound: "O=C(O)c1cc(O)c2c(c1)[C@H]([C@H]1c3cc(C(=O)O)cc(O)c3C(=O)c3c(O[C@@H]4O[C@H](CO)[C@@H](O)[C@H](O)[C@H]4O)cccc31)c1cccc(O[C@@H]3O[C@H](CO)[C@@H](O)[C@H](O)[C@H]3O)c1C2=O [Sennoside A]"
  cat: "N"
- compound: "O=C1c2c(O)cccc2[C@@H]([C@@H]2O[C@H](CO)[C@@H](O)[C@H](O)[C@H]2O)c2cc(CO)cc(O)c21 [Aloin B]"
  cat: "Y"
- compound: "O=C(/C=C/c1ccc(O)c(O)c1)OCCc1ccccc1 [Caffeic acid phenethyl ester]"
  cat: "N"
- compound: "O=C(O)c1c(O)cccc1O [2,6-Dihydroxybenzoic acid]"
  cat: "Y"

---

The following molecules are listed with their measured AvZ (average z score of seeding, SDs from the mean level of seeding) values.
system-name: tau (Homo sapiens, UniProt P10636)
Sequence (P10636 623-695 limits assumed): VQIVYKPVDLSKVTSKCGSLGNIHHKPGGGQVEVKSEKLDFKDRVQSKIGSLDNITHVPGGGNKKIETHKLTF
experiment-description: MCE Phenols Library screening, tau biosensor cell seeding assay (AvZ)
Format: cell-based
measurement-parameters: 10 μM phenol in cell cultures, AD brain homogenate preincubated 16 hours, two biological replicates; positive = catalyzes seeding, negative = inhibits
measurement-label: AvZ (average z score of seeding, SDs from the mean level of seeding)

- molecule: "COc1ccc(C=O)cc1"
  reported-value: 0.308
- molecule: "CC(=O)c1ccc(O)c(C)c1 [4'-Hydroxy-3'-methylacetophenone]"
  reported-value: -0.112
- molecule: "Cl.NCC(O)c1ccc(O)cc1 (stereo not shown) [Octopamine (hydrochloride)]"
  reported-value: -0.005
- molecule: "O=C(O)c1ccc(O)cc1 [4-Hydroxybenzoic acid]"
  reported-value: -0.554
- molecule: "CC(C)(O)CCc1c(O)cc(O)c2c(=O)c(O)c(-c3ccc(O)cc3)oc12"
  reported-value: 0.399
- molecule: "CCCOC(=O)c1ccc(O)cc1"
  reported-value: 0.488
- molecule: "O=C([O-])C(O)Cc1ccc(O)c(O)c1.[Na+] (stereo not shown) [Danshensu (sodium salt)]"
  reported-value: -0.495
- molecule: "O=C(O)c1cc(O)c(O)c(O)c1"
  reported-value: -1.627
- molecule: "OCc1ccccc1O"
  reported-value: -0.44
- molecule: "O=C(O)c1ccc(O)c(O)c1O [2,3,4-Trihydroxybenzoic acid]"
  reported-value: -0.363
